- test-summary: qHTS assay to identify small molecule antagonists of the thyroid receptor (TR) signaling pathway (AID 743065); also: nearly all actives have a fitted effect of over 55% in size
- conditions-used: GH3.TRE-Luc, T3-stimulated luciferase inhibition, 23.5 h; series mostly up to 70.3 µM
- Description: U.S. Tox21 Program National Center for Advancing Translational Sciences [NCATS] NIH Chemical Genomics Center [NCGC] U.S. Environmental Protection Agency [EPA] National Institutes of Environmental Health Sciences [NIEHS] National Toxicology Program [NTP] U.S. Food and Drug Administration [FDA] Tox21 Assay Overview: Thyroid receptor (TR), a nuclear hormone receptor, plays an important role in development, proliferation, differentiation, metabolism, brain function, and cardiovascular system. […]
Results filed as inconclusive are left out. Calls of active or inactive are those of the source. Calls follow the shape of the dose curve; as a rule, active = well fitted inhibition curve with a large enough effect in the repeat runs; inconclusive = weak or mixed curves; inactive = no such curve, though single readings can be large or run the other way.
Outcome (select one): active, inactive

Completed entries (count: 3):
C[N+](C)(C)CCOC(=O)CCC(=O)OCC[N+](C)(C)C	inactive
CCCCc1ncc(/C=C(\Cc2cccs2)C(=O)O)n1Cc1ccc(C(=O)O)cc1	inactive
Cc1oc2c(NC(=O)c3c(Cl)cccc3Cl)cccc2c1C(C)(C)O	active

Data request: For `OC[C@H]1O[C@@H](OCCc2ccc(O)cc2)[C@H](O)[C@@H](O)[C@@H]1O` , what call appears in the results of this test?
Data returned: inactive

Data request: For `O=C1CCC(=O)O1` , what call appears in the results of this test?
Data returned: inactive

Data request: For `O=S(=O)(Oc1ccc(Cl)cc1)c1ccccc1` , what call appears in the results of this test?
Data returned: inactive

Data request: For `NC(N)=NCCC[C@H](N)C(=O)O` , what call appears in the results of this test?
Data returned: inactive

Data request: For `CCc1cc(C2=C(C(=O)O)N(c3ccccc3C(F)(F)F)S(=O)(=O)c3ccccc32)cc2c1OCO2` , what call appears in the results of this test?
Data returned: inactive

Data request: For C[C@@H](c1ncncc1F)C(O)(Cn1cncn1)c1ccc(F)cc1F (stereo partly specified) , what call appears in the results of this test?
Data returned: inactive

Data request: For `ClCCOCCOCCCl` , what call appears in the results of this test?
Data returned: inactive

Data request: For `CCn1cc(C(=O)O)c(=O)c2cnc(N3CCNCC3)nc21` , what call appears in the results of this test?
Data returned: inactive

Data request: For COc1ccc(-c2nc3ccc(C4=NNC(=O)CC4C)cc3[nH]2)cc1 (stereo unspecified) , what call appears in the results of this test?
Data returned: active

Data request: For `C=C1[C@H]2CC[C@@H]3[C@H]2C(C)(C)CCC[C@]13C` , what call appears in the results of this test?
Data returned: inactive

Data request: For `NCc1ccccc1Sc1ccccc1CO` , what call appears in the results of this test?
Data returned: inactive

Data request: For COC(=O)C1=C(C)NC(COC(N)=O)=C(C(=O)OC(C)C)C1c1cccc(Cl)c1Cl (stereo unspecified) , what call appears in the results of this test?
Data returned: active

Data request: For `NCC(=O)CCC(=O)O` , what call appears in the results of this test?
Data returned: inactive

Data request: For C=CC1CC2C=CC1C2 (stereo unspecified) , what call appears in the results of this test?
Data returned: inactive
